System: rodent lifetime carcinogenesis bioassay, tumor incidence TD50
assayName: carcinogenic potency in animals, long-term in vivo studies, CPDB compilation (AID 1745844)
studyConditions: rat; strain BR 46; males; i.v.; site: any site (literature study); lesion: benign tumor; dosed 52 weeks; study length 104 weeks
The source made the active and inactive calls. No rule for the calls is given here. Numbered stars: 1 amine (or outer) side, 2 acyl side, 3 side chain; on linkers, the order of the positions; unused ones are H or OH. Bridge positions count the residues as written; N and C are the ends. Square brackets hold non-standard residues; d marks the D form. Peptide text beside a SMILES is read from it. I, II: the chains in the order shown. Actinocin(1to9) = Cc1c2oc3c(C)ccc(C(=O)[*:2])c3nc-2c(C(=O)[*:1])c(N)c1=O; NMeV = CN[C@H](C(=O)O)C(C)C; Sar = CNCC(=O)O
Overview of recorded TD50 for various molecules

molecule | endpointLabel | testValue
CN(Cc1cnc2nc(N)nc(N)c2n1)c1ccc(C(=O)N[C@@H](CCC(=O)O)C(=O)O)cc1 | TD50 | 0.409 mg/kg/day (inactive)

As a next step, examine the molecule that follows.
Return value of TD50 for input CC[C@H](C)[C@@H]1NC(=O)[C@@H](NC(=O)c2c3nc4c(C(=O)N[C@@H]5C(=O)N[C@@H](C(C)C)C(=O)N6CCC[C@H]6C(=O)N(C)CC(=O)N(C)[C@@H](C(C)C)C(=O)O[C@@H]5C)ccc(C)c4oc-3c(C)c(=O)c2N)[C@@H](C)OC(=O)[C@H](C(C)C)N(C)C(=O)CN(C)C(=O)[C@@H]2CCCN2C1=O (I: TIP[Sar][NMeV] / II: TVP[Sar][NMeV]; ester I:1-I:C, II:1-II:C; linker I:N-II:N via Actinocin(1to9)) , no commentary.
2.23 mg/kg/day

----------
Tested on: rodent lifetime carcinogenesis bioassay, tumor incidence TD50
assayName: carcinogenic potency in animals, long-term in vivo studies, CPDB compilation (AID 1745844)
studyConditions: mouse; strain B6C3F1; females; inhaled; site: Harderian gland; lesion: papillary cystadenoma, NOS; dosed 102 weeks; study length 104 weeks
endpointLabel: TD50

Report TD50, nothing else, for this molecule: C1CO1
142 mg/kg/day

----------
Tested on: rodent lifetime carcinogenesis bioassay, tumor incidence TD50
assayName: carcinogenic potency in animals, long-term in vivo studies, CPDB compilation (AID 1745844)
studyConditions: rat; strain Fischer 344; males; in feed; site: pituitary gland; lesion: pars distalis adenoma; dosed 103 weeks; study length 104 weeks
endpointLabel: TD50 (mg/kg/day)
Your answer is read as mg/kg/day, so omit the unit and give the number.

Answer with reported TD50 of O=[N+]([O-])c1ccc(NCCO)c(OCCO)c1
465

----------
Test system: rodent lifetime carcinogenesis bioassay, tumor incidence TD50
assayName: carcinogenic potency in animals, long-term in vivo studies, CPDB compilation (AID 1745844)
studyConditions: mouse; strain B6C3F1; males; in feed; site: all sites; lesion: hemangiosarcoma; dosed 100 weeks; study length 100 weeks
Activity calls are given as the source filed them. The rule behind the calls is not given here.
endpointLabel: TD50

// output TD50; input N#CN ; system rodent lifetime carcinogenesis bioassay, tumor incidence TD50
766 mg/kg/day (inactive)

----------
Tested on: rodent lifetime carcinogenesis bioassay, tumor incidence TD50
assayName: carcinogenic potency in animals, long-term in vivo studies, CPDB compilation (AID 1745844)
studyConditions: rat; strain Fischer 344; males; by gavage; site: nasal cavity; lesion: carcinoma, NOS + squamous-cell carcinoma; dosed 94 weeks; study length 104 weeks
endpointLabel: TD50

Hello, please tell me recorded TD50 for this one: CC(C)=CCl
52.1 mg/kg/day

----------
System: rodent lifetime carcinogenesis bioassay, tumor incidence TD50
assayName: carcinogenic potency in animals, long-term in vivo studies, CPDB compilation (AID 1745844)
studyConditions: rat; strain Slc-Wistar; males; in feed; site: brain; lesion: several types; types named in the paper; dosed 104 weeks; study length 104 weeks
Active and inactive are the calls of the source. No rule for the calls is given here. Peptide text beside a SMILES is read from it.
endpointLabel: TD50

Return TD50 (reported value) for this compound: COC(=O)[C@H](Cc1ccccc1)NC(=O)[C@@H](N)CC(=O)O (H-Asp-Phe-OMe)
186000 mg/kg/day (inactive)

----------
Test system: rodent lifetime carcinogenesis bioassay, tumor incidence TD50
assayName: carcinogenic potency in animals, long-term in vivo studies, CPDB compilation (AID 1745844)
studyConditions: rat; strain Fischer 344; females; in drinking water; site: liver; lesion: neoplastic nodule; dosed 50 weeks; study length 120 weeks
endpointLabel: TD50

Specify TD50 for O=NC(=O)CCNCCO , system rodent lifetime carcinogenesis bioassay, tumor incidence TD50.
2.7 mg/kg/day

----------
The reader will find reported TD50 values listed item by item below.
Tested on: rodent lifetime carcinogenesis bioassay, tumor incidence TD50
assayName: carcinogenic potency in animals, long-term in vivo studies, CPDB compilation (AID 1745844)
studyConditions: mouse; strain CD-1 HaM/ICR; females; in feed; site: any site (literature study); lesion: several types; types named in the paper; dosed 77 weeks; study length 98 weeks
Active and inactive are the calls of the source. How the calls were made is not given here.

compound | endpointLabel | testValue
Cc1cc(C)c(N)cc1C | TD50 | 47.2 mg/kg/day

Proceeding to the next molecule to report its TD50.
State its TD50 for this molecule: Nc1ccc(-c2ccc(N)c(N)c2)cc1N
599 mg/kg/day (inactive)

----------
System: rodent lifetime carcinogenesis bioassay, tumor incidence TD50
assayName: carcinogenic potency in animals, long-term in vivo studies, CPDB compilation (AID 1745844)
studyConditions: rat; strain Osborne-Mendel; males; in feed; site: adrenal gland; lesion: adenoma, NOS + carcinoma, NOS; dosed 80 weeks; study length 110 weeks
Activity calls are given as the source filed them. The rule behind the calls is not given here.
endpointLabel: TD50

Recall the reported TD50 of ClC1=C(Cl)[C@]2(Cl)[C@@H]3[C@H]4C[C@H]([C@@H]5O[C@H]45)[C@@H]3[C@@]1(Cl)C2(Cl)Cl on rodent lifetime carcinogenesis bioassay, tumor incidence TD50 and write it down.
0.553 mg/kg/day (inactive)

----------
Tested on: rodent lifetime carcinogenesis bioassay, tumor incidence TD50
assayName: carcinogenic potency in animals, long-term in vivo studies, CPDB compilation (AID 1745844)
studyConditions: rat; strain Charles River CD (Sprague-Dawley); males; inhaled; site: liver; lesion: hemangiosarcoma; dosed 43 weeks; study length 95 weeks
endpointLabel: TD50

Please look at C=CCl and tell me its recorded TD50 on rodent lifetime carcinogenesis bioassay, tumor incidence TD50.
103 mg/kg/day

----------
Tested on: rodent lifetime carcinogenesis bioassay, tumor incidence TD50
assayName: carcinogenic potency in animals, long-term in vivo studies, CPDB compilation (AID 1745844)
studyConditions: mouse; strain C57BL/6; males; in feed; site: lung; lesion: alveolar/bronchiolar adenoma; dosed 52 weeks; study length 69 weeks
Active and inactive are the calls of the source. No rule for the calls is given here.
endpointLabel: TD50

// output TD50; input CCCCCC(N)=O ; system rodent lifetime carcinogenesis bioassay, tumor incidence TD50
3490 mg/kg/day (inactive)

----------
Test system: rodent lifetime carcinogenesis bioassay, tumor incidence TD50
assayName: carcinogenic potency in animals, long-term in vivo studies, CPDB compilation (AID 1745844)
studyConditions: mouse; strain CD-1 HaM/ICR; females; in feed; site: any site (literature study); lesion: several types; types named in the paper; dosed 104 weeks; study length 104 weeks
The source made the active and inactive calls. The rule behind the calls is not given here.
endpointLabel: TD50

Name the recorded TD50 of the item O=C1NS(=O)(=O)c2ccccc21 in your answer.
26100 mg/kg/day (inactive)

----------
Tested on: rodent lifetime carcinogenesis bioassay, tumor incidence TD50
assayName: carcinogenic potency in animals, long-term in vivo studies, CPDB compilation (AID 1745844)
studyConditions: mouse; strain CD-1 HaM/ICR; females; in feed; site: any site (literature study); lesion: several types; types named in the paper; dosed 77 weeks; study length 90 weeks
The source made the active and inactive calls. How the calls were made is not given here.
In this section, each of the compounds is paired with its reported TD50.

The following compounds have reported results that may help.
compound | testValue
Cc1ccc(N)c(C)c1 | 12.2 mg/kg/day
Nc1ccccc1N | 676 mg/kg/day
Nc1ccc(Cc2ccc(N)c(Cl)c2)cc1Cl | 52.8 mg/kg/day
COc1ccc(OC)c(/C=C/c2ccc(N)cc2)c1 | 118 mg/kg/day (inactive)

Please examine the following record next.
Retrieve TD50 on rodent lifetime carcinogenesis bioassay, tumor incidence TD50; query Cc1ccc(N)cc1N
100 mg/kg/day

----------
System: rodent lifetime carcinogenesis bioassay, tumor incidence TD50
assayName: carcinogenic potency in animals, long-term in vivo studies, CPDB compilation (AID 1745844)
studyConditions: mouse; strain B6C3F1; females; oral dosing; site: any site (literature study); lesion: several types; types named in the paper; dosed 82 weeks; study length 82 weeks
endpointLabel: TD50 (mg/kg/day)
Write it as a number; the unit mg/kg/day goes unstated.

Give reported TD50 value for CCOC(=O)C(O)(c1ccc(Cl)cc1)c1ccc(Cl)cc1
302

----------
Test system: rodent lifetime carcinogenesis bioassay, tumor incidence TD50
assayName: carcinogenic potency in animals, long-term in vivo studies, CPDB compilation (AID 1745844)
studyConditions: mouse; strain B6C3F1; males; inhaled; site: liver + mesentery + spleen; lesion: hemangiosarcoma; dosed 104 weeks; study length 104 weeks
endpointLabel: TD50 (mg/kg/day)
Entry rule: numbers only, all in mg/kg/day.

Look up and report measured TD50 for this entry: O=[O+][O-]
0.314
